Assign IC50 (neutralization) to each entry below.
# Measured Target: T1, LASV Josiah (lineage IV) glycoprotein, full-length GP (Lassa virus, Josiah strain, UniProt P08669 2-491)
# T1 sequence: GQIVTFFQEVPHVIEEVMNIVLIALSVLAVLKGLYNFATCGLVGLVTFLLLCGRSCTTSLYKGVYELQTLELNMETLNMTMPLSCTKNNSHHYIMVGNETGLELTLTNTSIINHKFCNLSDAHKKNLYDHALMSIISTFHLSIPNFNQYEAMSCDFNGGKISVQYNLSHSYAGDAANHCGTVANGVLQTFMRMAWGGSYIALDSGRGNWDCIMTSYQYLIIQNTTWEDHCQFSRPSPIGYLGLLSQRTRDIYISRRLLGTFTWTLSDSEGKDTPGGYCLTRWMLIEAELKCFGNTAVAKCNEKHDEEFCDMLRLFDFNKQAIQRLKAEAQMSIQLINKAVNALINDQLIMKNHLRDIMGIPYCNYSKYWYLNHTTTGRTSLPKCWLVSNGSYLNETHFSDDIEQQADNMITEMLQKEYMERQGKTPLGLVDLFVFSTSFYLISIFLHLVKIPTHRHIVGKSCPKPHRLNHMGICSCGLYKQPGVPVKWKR
# Run Description: cell-based or functional assay
Note: unit µg/mL is implicit; provide only the numeric part.

**Query** I have this binder here, 37.2D (antibody, V domains shown) VH: EVQLVQSGAEVKKPGASVKVSCKASGYTFTKYGISWVRQAPGQGLEWMGWISAFNGYTRYGQRFQGKVTMTTDTSTNTASLEVRTLTSNDTAVYYCARQYPDQYSSSGWPRLFAMDVWGQGTTVIVSP VL: ETTLTQSPATLSVSPGETATLSCRASQNVINNLAWYQQKPGQAPRLLIYGASTRATGIPARFSGSGSGTEFTLTISSMQSEDFAVYYCQQYNDWPRSFGQGTRLDIRR , and I need its recorded IC50 (neutralization).
**Result** 0.559

**Query** I have this binder here, 36.9F (antibody, V domains shown) VH: EVQLVQSGGGLVKAGGSLKLSCGASGFTFSSYSMSWVRQAPGKGLEWVSYISSGGSSIHYADSVKGRFTISRDNAKNSLYLQMKNLRVDDTGRYYCVRDPRSGISGRYGMDVWGQGTTVTVSS VL: DIVMTQSPDSLAVSLGERATINCKSSQTVLFTSYYVAWYQQKPGQPPKLLFSGASSRESGVPDRFSAGGSGTDFYLTINSLQAEDVADYYCQQYHTPPFTFGGGTKLEIRR , and I need its recorded IC50 (neutralization).
**Result** 18
